- Method summary: isobaric coefficient of expansion
- Run parameters: 303.15 K; 2000 kPa; Liquid
Measured metric: isobaric coefficient of expansion

Sample records with isobaric coefficient of expansion:
Cc1ccccc1; 0.00103 1/K
CCCCCC; 0.00133 1/K
C1CCCCC1; 0.00116 1/K

Consider the additional molecule presented here.
Lookup result for `CCCCCCC` ; measured isobaric coefficient of expansion: 0.00123 1/K

====

Catalogue of isobaric coefficient of expansion readings, one per entry.
- Method summary: isobaric coefficient of expansion
- Run parameters: 303.15 K; 8000 kPa; Liquid

Sample records with isobaric coefficient of expansion:
CCCCCCC [heptane]; 0.00116 1/K
Cc1ccccc1 [toluene]; 0.000996 1/K
CCCCCC [hexane]; 0.00124 1/K

Consider the additional compound presented here.
Lookup result for C1CCCCC1 [cyclohexane] ; measured isobaric coefficient of expansion: 0.00111 1/K

====

- Method summary: isobaric coefficient of expansion
- Run parameters: 303.15 K; 29000 kPa; Liquid
Catalogue of isobaric coefficient of expansion readings, one per entry.

C1CCCCC1 [cyclohexane]; 0.000975 1/K

Lookup result for CCCCCCC [heptane] ; measured isobaric coefficient of expansion: 0.000988 1/K

Lookup result for CCCCCC [hexane] ; measured isobaric coefficient of expansion: 0.00104 1/K

Lookup result for Cc1ccccc1 [toluene] ; measured isobaric coefficient of expansion: 0.000896 1/K

====

- Method summary: isobaric coefficient of expansion
- Run parameters: 303.15 K; 25000 kPa; Liquid
Measured metric: isobaric coefficient of expansion

C1CCCCC1; 0.000994 1/K
CCCCCC; 0.00107 1/K
CCCCCCC; 0.00101 1/K

Lookup result for `Cc1ccccc1` ; measured isobaric coefficient of expansion: 0.000908 1/K

====

- Method summary: isobaric coefficient of expansion
- Run parameters: 303.15 K; 4000 kPa; Liquid
Measured metric: isobaric coefficient of expansion

Sample records with isobaric coefficient of expansion:
CCCCCC; 0.0013 1/K
CCCCCCC; 0.00121 1/K
C1CCCCC1; 0.00114 1/K

Consider the additional compound presented here.
Lookup result for `Cc1ccccc1` ; measured isobaric coefficient of expansion: 0.00102 1/K

====

Catalogue of isobaric coefficient of expansion readings, one per entry.
- Method summary: isobaric coefficient of expansion
- Run parameters: 303.15 K; 6000 kPa; Liquid

CCCCCC [hexane]; 0.00126 1/K
CCCCCCC [heptane]; 0.00118 1/K
Cc1ccccc1 [toluene]; 0.00101 1/K

Consider the additional compound presented here.
Lookup result for C1CCCCC1 [cyclohexane] ; measured isobaric coefficient of expansion: 0.00113 1/K

====

- Method summary: isobaric coefficient of expansion
- Run parameters: 303.15 K; 1000 kPa; Liquid
Measured metric: isobaric coefficient of expansion

C1CCCCC1; 0.00117 1/K
Cc1ccccc1; 0.00104 1/K
CCCCCC; 0.00135 1/K

Consider the additional molecule presented here.
Lookup result for `CCCCCCC` ; measured isobaric coefficient of expansion: 0.00124 1/K

====

- Method summary: isobaric coefficient of expansion
- Run parameters: 303.15 K; 30000 kPa; Liquid
Measured metric: isobaric coefficient of expansion

Sample records with isobaric coefficient of expansion:
CCCCCC; 0.00103 1/K
Cc1ccccc1; 0.000892 1/K
C1CCCCC1; 0.00097 1/K

Consider the additional molecule presented here.
Lookup result for `CCCCCCC` ; measured isobaric coefficient of expansion: 0.000983 1/K
